Assay: BSK_3C_uPAR: BioMAP Diversity Plus: 3C Assay for Urokinase-type plasminogen activator receptor (uPAR) Biomarker Activity (AID 2282998)
Conditions: BioMAP 3C HUVEC, uPAR biomarker ELISA; actives raise or lower the signal
The source made the active and inactive calls. Rule for the calls: active = hit-call score of the fitted dose curve at least 0.9, where 1 is the maximum; inactive = score below 0.9.
parameter measured: AC50

molecule | measured result
CCCCC/C=C/C=C/C=O | 31.5 µM (active)
CC1CCC(C(C)CS)CC1S (stereo unspecified) | inactive
C=C(C)C(=O)O[C@H]1C[C@@H]2CC[C@@]1(C)C2(C)C | 13.5 µM (active)
CC(C)c1ccc(C(C)C)cc1 | 31.6 µM (active)
O=C(O)c1cn(-c2ccc(F)cc2)c2cc(N3CCNCC3)c(F)cc2c1=O | inactive

Next up:
Using the record for OC[C@H]1O[C@H](O[C@]2(CCl)O[C@H](CCl)[C@@H](O)[C@@H]2O)[C@H](O)[C@@H](O)[C@H]1Cl , report its AC50.
inactive

Origin of the recorded values: PubChem BioAssay (EPA / NIEHS)
